For each entry below, report its GI50 value.
Assay Method Text: Antiproliferative activity against human WM266.4 cells after 6 days by SRB assay
Type: functional
Test Context: WM 266-4, 144 h
Report only the number, with the unit µM understood.

[in] Give reported GI50 value for "O=C(Nc1cccc(Oc2ccnc3[nH]c(=O)[nH]c23)c1)Nc1cc(C(F)(F)F)ccc1F"
[out] 1.6

[in] Output measured GI50 for this item: "O=C(Nc1cccc(Oc2ccnc3[nH]c(=O)[nH]c23)c1)c1cccc2ccccc12"
[out] 23

[in] Quickly give me recorded GI50 for "O=C(Nc1cccc(Oc2ccnc3[nH]c(=O)[nH]c23)c1)c1cccc2c1OCCO2"
[out] 40

[in] Input "O=C(Nc1cccc(SC(F)(F)F)c1)c1cccc(Oc2ccnc3[nH]c(=O)[nH]c23)c1" , output reported GI50.
[out] 9.2

[in] Please supply the value of reported GI50 for the item "O=C(Nc1cccc(Oc2ccnc3[nH]c(=O)[nH]c23)c1)Nc1ccc(F)c(F)c1"
[out] 3.7

[in] Tell me GI50 reported for "O=C(Nc1cccc(Oc2ccnc3[nH]c(=O)[nH]c23)c1)c1cccc(OC(F)(F)F)c1"
[out] 1

[in] State its GI50 for this compound: "O=C(Nc1ccc(Cl)c(C(F)(F)F)c1)c1cccc(Oc2ccnc3[nH]c(=O)[nH]c23)c1"
[out] 7.3

[in] Indicate the recorded GI50 value for this compound: "O=C(Nc1cccc(Oc2ccnc3[nH]c(=O)[nH]c23)c1)c1ccc(F)c(OC(F)(F)F)c1"
[out] 7.4

[in] Find the measured GI50 of "O=C(Nc1cccc(Oc2ccnc3[nH]c(=O)[nH]c23)c1)c1cc(OC(F)(F)F)ccc1F" and report it.
[out] 1.2

[in] Output GI50 of "O=C(Nc1cccc(Oc2ccnc3[nH]c(=O)[nH]c23)c1)c1cccc(OC(F)(F)C(F)F)c1"
[out] 0.841

[in] Given the compound "O=c1[nH]c2nccc(Oc3cccc(NCc4cccc(OC(F)(F)F)c4)c3)c2[nH]1" , write its reported GI50.
[out] 0.74

[in] Write down GI50 measured for item "O=C(Nc1cccc(Oc2ccnc3[nH]c(=O)[nH]c23)c1)c1cccc(OC(F)(F)F)c1F"
[out] 0.57

[in] // Input: "O=C(Nc1cccc(Oc2ccnc3[nH]c(=O)[nH]c23)c1)c1cccc2c1OCCCO2" . Output its GI50 only.
[out] 48

[in] Item "O=C(Nc1cccc(OC(F)(F)F)c1)c1cccc(Oc2ccnc3[nH]c(=O)[nH]c23)c1" : provide GI50
[out] 2.4

* * *

Test Target: Serine/threonine-protein kinase B-raf (Homo sapiens, UniProt P15056, V600E)
Sequence (P15056 2-766 V600E limits assumed): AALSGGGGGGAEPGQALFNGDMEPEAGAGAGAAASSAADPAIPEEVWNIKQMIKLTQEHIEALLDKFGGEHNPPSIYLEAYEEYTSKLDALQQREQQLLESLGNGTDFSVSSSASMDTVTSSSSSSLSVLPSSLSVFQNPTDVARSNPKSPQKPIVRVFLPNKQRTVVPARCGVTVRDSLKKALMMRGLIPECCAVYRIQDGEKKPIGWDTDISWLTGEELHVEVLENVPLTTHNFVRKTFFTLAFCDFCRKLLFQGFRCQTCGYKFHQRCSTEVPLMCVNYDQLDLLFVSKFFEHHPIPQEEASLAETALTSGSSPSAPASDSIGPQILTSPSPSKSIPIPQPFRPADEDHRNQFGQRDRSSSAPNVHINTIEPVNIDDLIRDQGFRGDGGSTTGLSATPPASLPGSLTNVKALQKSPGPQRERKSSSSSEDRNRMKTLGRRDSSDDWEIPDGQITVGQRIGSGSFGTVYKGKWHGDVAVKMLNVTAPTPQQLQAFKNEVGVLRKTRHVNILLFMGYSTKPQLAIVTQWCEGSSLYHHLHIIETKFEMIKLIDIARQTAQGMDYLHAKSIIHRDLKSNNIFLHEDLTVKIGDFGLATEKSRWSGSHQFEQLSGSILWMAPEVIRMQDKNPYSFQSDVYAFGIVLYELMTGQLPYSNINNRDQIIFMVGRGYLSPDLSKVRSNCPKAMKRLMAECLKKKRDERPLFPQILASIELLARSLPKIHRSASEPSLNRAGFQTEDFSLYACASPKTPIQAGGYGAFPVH
Assay Method Text: Inhibition of human BRAF V600E mutant expressed in Sf9 cells
Measured Attribute: IC50 (nM)
Write the number in nM without appending the unit.

[in] Return IC50 (reported value) for this compound: "O=C(Nc1cccc(Oc2ccnc3[nH]c(=O)[nH]c23)c1)c1cccc2ccccc12"
[out] 920

[in] Tell me its IC50 given "O=C(Nc1cccc(Oc2ccnc3[nH]c(=O)[nH]c23)c1)c1ccc(Cl)c(C(F)(F)F)c1" as the entry.
[out] 124

[in] Tell us which IC50 value is on record for "O=C(Nc1cccc(SC(F)(F)F)c1)c1cccc(Oc2ccnc3[nH]c(=O)[nH]c23)c1"
[out] 187

[in] Output IC50 of "CC(C)(C)c1cccc(C(=O)Nc2cccc(Oc3ccnc4[nH]c(=O)[nH]c34)c2)c1"
[out] 17

[in] For the compound "O=C(Nc1cccc(Oc2ccnc3[nH]c(=O)[nH]c23)c1)c1cccc(-n2cccc2)c1" , give its reported IC50.
[out] 57

[in] Using known records, supply IC50 for "O=C(Nc1cccc(Oc2ccnc3[nH]c(=O)[nH]c23)c1)c1ccccc1OC(F)(F)F"
[out] 79000

[in] Supply recorded IC50 for "O=C(Nc1cc(F)cc(Oc2ccnc3[nH]c(=O)[nH]c23)c1)c1cccc(OC(F)(F)F)c1" here.
[out] 33

[in] Give the reported value of IC50 for this record: "O=C(Nc1cccc(Oc2ccnc3[nH]c(=O)[nH]c23)c1)c1ccc(C(F)(F)F)cc1"
[out] 730

[in] State, in one line, measured IC50 of "COc1cc(NC(=O)c2cccc(OC(F)(F)F)c2)cc(Oc2ccnc3[nH]c(=O)[nH]c23)c1"
[out] 64

[in] Supply IC50 value. Item: "O=C(Nc1cccc(Oc2ccnc3[nH]c(=O)[nH]c23)c1)c1cccc(OC(F)(F)C(F)F)c1"
[out] 23

* * *

What IC50 was measured for each of the following?
Test Target: Serine/threonine-protein kinase B-raf (Homo sapiens, UniProt P15056, V600E)
Assay Method Text: Inhibition of human BRAF V600E mutant expressed in Sf9 cells

[in] # return recorded IC50 for input "O=C(Nc1cccc(Oc2ccnc3[nH]c(=O)[nH]c23)c1)c1cccc2c1OCCO2"
[out] > 100 µM

[in] Report IC50 for "O=C(Nc1cccc(Oc2ccnc3[nH]c(=O)[nH]c23)c1)c1cnn(-c2ccccc2)c1C(F)(F)F"
[out] > 100 µM

[in] Could you please provide reported IC50 for "Cc1ccc(Oc2ccnc3[nH]c(=O)[nH]c23)cc1NC(=O)c1cccc(OC(F)(F)F)c1" ? Thanks!
[out] > 10 µM
